Reported pIC50 values for a set of compounds
test: cells; assay type: functional, cell-based; settings: Homo sapiens, UCH2, 72 h
Description: Antiproliferative activity against human UCH2 cells measured after 72 hrs by alamar blue assay
pIC50: −log10 of the molar value.

compound: C#Cc1cccc(Nc2ccnc3cc(OC)c(OC)cc23)c1
relational-operator: <
pIC50: 4.30

compound: CCOc1cc2ncc(C#N)c(Nc3ccc(OCc4ccccn4)c(Cl)c3)c2cc1NC(=O)/C=C/CN(C)C [NERATINIB]
relational-operator: =
pIC50: 5.62

compound: COc1cc2ncc(C#N)c(Nc3cc(OC)c(OC)c(OC)c3)c2cc1OC
relational-operator: <
pIC50: 5.00

compound: COc1cc2nccc(Nc3cccc(Br)c3)c2cc1OC
relational-operator: =
pIC50: 5.10

compound: COc1cc2nccc(Nc3ccc(OCc4cccc(F)c4)c(Cl)c3)c2cc1OC
relational-operator: =
pIC50: 5.54

compound: COc1cc2ncnc(Nc3cc(OC)c(OC)c(OC)c3)c2cc1OC
relational-operator: <
pIC50: 5.00

compound: COc1cc2nccc(Nc3cc(OC)c(OC)c(OC)c3)c2cc1OC
relational-operator: =
pIC50: 4.60

compound: COc1cccc(Nc2ncnn3ccc(CN4CC[C@@H](N)[C@H](O)C4)c23)c1 [BMS-690514]
relational-operator: <
pIC50: 4.30

compound: CCOc1cc2ncc(C#N)c(Nc3ccc(F)c(Cl)c3)c2cc1NC(=O)/C=C/CN(C)C [PELITINIB]
relational-operator: =
pIC50: 5.80

compound: C=CC(=O)Nc1cc2c(Nc3ccc(F)c(Cl)c3)ncnc2cc1OCCCN1CCOCC1 [CANERTINIB]
relational-operator: =
pIC50: 4.77

* * *

Molecular target: Cyclin-G-associated kinase (Homo sapiens, UniProt O14976)
Sequence (O14976 whole entry): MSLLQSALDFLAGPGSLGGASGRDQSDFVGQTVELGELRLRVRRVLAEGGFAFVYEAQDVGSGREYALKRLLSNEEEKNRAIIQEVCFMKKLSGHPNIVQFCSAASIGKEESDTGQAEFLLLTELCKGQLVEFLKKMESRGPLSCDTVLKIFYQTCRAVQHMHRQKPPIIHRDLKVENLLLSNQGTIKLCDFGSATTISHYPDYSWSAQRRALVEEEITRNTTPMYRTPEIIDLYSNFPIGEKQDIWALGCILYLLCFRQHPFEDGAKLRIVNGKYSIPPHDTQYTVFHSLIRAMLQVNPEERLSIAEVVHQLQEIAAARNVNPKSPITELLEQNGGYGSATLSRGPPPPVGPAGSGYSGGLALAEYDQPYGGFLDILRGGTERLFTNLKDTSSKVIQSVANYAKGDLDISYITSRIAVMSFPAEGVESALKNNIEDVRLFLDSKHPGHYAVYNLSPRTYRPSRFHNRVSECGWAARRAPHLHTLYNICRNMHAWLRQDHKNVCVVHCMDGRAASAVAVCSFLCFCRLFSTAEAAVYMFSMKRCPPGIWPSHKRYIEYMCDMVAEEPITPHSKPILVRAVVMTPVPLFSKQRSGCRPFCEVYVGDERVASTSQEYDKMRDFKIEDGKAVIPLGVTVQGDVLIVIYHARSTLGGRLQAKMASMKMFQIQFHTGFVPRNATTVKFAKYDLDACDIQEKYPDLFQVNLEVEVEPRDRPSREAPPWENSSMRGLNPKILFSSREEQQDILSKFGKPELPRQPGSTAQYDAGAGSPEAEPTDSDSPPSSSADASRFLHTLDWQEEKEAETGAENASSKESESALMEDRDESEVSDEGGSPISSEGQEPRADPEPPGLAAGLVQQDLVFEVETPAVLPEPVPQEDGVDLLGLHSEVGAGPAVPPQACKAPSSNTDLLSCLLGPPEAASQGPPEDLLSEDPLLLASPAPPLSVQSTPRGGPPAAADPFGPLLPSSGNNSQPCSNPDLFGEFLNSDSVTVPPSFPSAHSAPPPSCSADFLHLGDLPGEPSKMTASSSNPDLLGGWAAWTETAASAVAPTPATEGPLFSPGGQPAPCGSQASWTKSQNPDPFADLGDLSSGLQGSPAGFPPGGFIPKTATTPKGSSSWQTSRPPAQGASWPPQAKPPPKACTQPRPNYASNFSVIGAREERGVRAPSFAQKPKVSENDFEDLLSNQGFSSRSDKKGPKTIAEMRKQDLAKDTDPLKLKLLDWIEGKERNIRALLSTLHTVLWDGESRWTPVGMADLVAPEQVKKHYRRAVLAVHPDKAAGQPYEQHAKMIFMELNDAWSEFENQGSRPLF
pKd: −log10 of the molar value.

smiles-entry: C#Cc1cccc(Nc2ccnc3cc(OC)c(OC)cc23)c1
pKd: 8.12
--
smiles-entry: COc1cc(Nc2ncnc3ccc(C(F)(F)F)cc23)cc(OC)c1OC
pKd: 6.72
--
smiles-entry: COc1cc2ncnc(Nc3ccc(OCc4cccc(F)c4)c(Cl)c3)c2cc1OC
pKd: 5.30
--
smiles-entry: C#Cc1cccc(Nc2ncnc3cc(OC)c(OC)cc23)c1
pKd: 8.17
